system: OVCAR-3; test: NCI tumour cell line growth inhibition, 48 h
Active and inactive are the calls of the source. Cut-off read from the data, not from the text of the source: active = GI50 up to about 1.1 µM and inactive = higher.
endpointName: GI50

IN: For the compound N#CSCc1nc2ccc(Cl)cc2c(-c2ccccc2)[n+]1[O-] , give its measured GI50 value.
OUT: 26.8 µM (inactive)

IN: For the compound COC(=O)c1nc(NC#N)nc(O)c1C , give its measured GI50 value.
OUT: > 100 µM (inactive)

IN: For the compound CCOP(=O)(OCC)/C(C#N)=C/c1cccn1C(C)C , give its measured GI50 value.
OUT: > 100 µM (inactive)

IN: For the compound CC(C)(O)C(O)COc1c2c(cc3oc(=O)ccc13)OCO2 (stereo not given) , give its measured GI50 value.
OUT: > 100 µM (inactive)

IN: For the compound C=CCNC(=O)NCCCCC(NC(C)=O)C(=O)NCc1ccccc1 (stereo not given) , give its measured GI50 value.
OUT: > 100 µM (inactive)

IN: For the compound N/N=C(\c1nc2ccc([N+](=O)[O-])cc2nc1O)C(O)c1ccc(Cl)c(Cl)c1 (stereo not given) , give its measured GI50 value.
OUT: > 100 µM (inactive)

IN: For the compound Nc1ncc2ncn(C3CCC(CO)O3)c2n1 (stereo not given) , give its measured GI50 value.
OUT: > 100 µM (inactive)

IN: For the compound O=C(O)CCC(NC(=O)c1ccc(Nc2nc3ccccc3nc2C(=O)O)cc1)C(=O)O (stereo not given) , give its measured GI50 value.
OUT: > 100 µM (inactive)

IN: For the compound COC(=O)C1=C(C[S+]([O-])c2ccc([N+](=O)[O-])cc2[N+](=O)[O-])C2C=CC1C2 (stereo not given) , give its measured GI50 value.
OUT: 23.1 µM (inactive)

IN: For the compound COc1ccc(C(=O)Nc2ccccc2)cc1[N+](=O)[O-] , give its measured GI50 value.
OUT: 58.9 µM (inactive)

IN: For the compound O=c1oc2nc(-c3ccccc3)cc(C(F)(F)F)c2n1Cc1ccccc1 , give its measured GI50 value.
OUT: 4.06 µM (inactive)

IN: For the compound C/C(=N\NC(=O)c1ccncc1)c1ccccc1F , give its measured GI50 value.
OUT: > 10 µM (inactive)

IN: For the compound COc1cccc(/N=N/C(=N\NC(=O)c2ccc(C)cc2)c2ccc(N(CCC#N)CCC#N)cc2C)c1 , give its measured GI50 value.
OUT: 37.6 µM (inactive)

IN: For the compound CN(C)CC(C)(C)/C(=N\Nc1ccccc1)c1ccccc1 , give its measured GI50 value.
OUT: 54.8 µM (inactive)

IN: For the compound Cc1c(-c2coc(-c3ccc([N+](=O)[O-])cc3)n2)c(=O)n(-c2ccccc2)n1C , give its measured GI50 value.
OUT: > 100 µM (inactive)

###

tested on: SF-268; test: NCI tumour cell line growth inhibition, 48 h
Active and inactive are the calls of the source. Cut-off read from the data, not from the text of the source: active = GI50 up to about 1.1 µM and inactive = higher.
Return exactly one item of true = active, false = inactive

IN: # lookup: test call for C(=N\NC1=NCCN1)/c1cccc2cc3ccncc3nc12
OUT: false

IN: # lookup: test call for O=C1c2ccccc2C(=O)c2c(O)c(NCCCNCCO)cc(O)c21
OUT: false

IN: # lookup: test call for COc1ccccc1NC(=S)N/N=C(/C)c1ccccn1
OUT: true

IN: # lookup: test call for Nc1ccccc1.O=C(O)C(C(F)(F)F)C(F)(F)F
OUT: false

IN: # lookup: test call for Nc1ccc(Nc2cc(O)nc(O)n2)cc1
OUT: false

IN: # lookup: test call for c1cc2c(c(-c3c4ccccc4nc4ccccc34)c1)CC1(CC2)OCCO1
OUT: false
